- SUBJECT_OF_TEST: human-derived GPR40 (Homo sapiens, UniProt O14842)
- Construct: expressed in transfected cells
- Sequence (O14842 whole entry): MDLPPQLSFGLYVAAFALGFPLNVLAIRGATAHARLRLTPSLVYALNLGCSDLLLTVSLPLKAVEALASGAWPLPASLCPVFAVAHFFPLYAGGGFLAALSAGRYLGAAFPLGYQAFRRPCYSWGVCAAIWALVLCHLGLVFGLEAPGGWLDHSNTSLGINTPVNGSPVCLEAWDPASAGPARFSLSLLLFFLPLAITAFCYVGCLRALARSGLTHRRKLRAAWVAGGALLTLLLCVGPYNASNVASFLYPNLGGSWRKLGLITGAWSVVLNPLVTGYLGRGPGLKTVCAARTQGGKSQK
- ASSAY_PROCEDURE: Receptor function modulating action (agonist action) on human-derived GPR40: variation in intracellular calcium concentration in CHO cells (FLIPR or Cell Lux)
- Format: cell-based
- CONDITION_INFO: each compound at 1 μM; relative to activity of 10 μM γ-linolenic acid = 100%; CHO cell line stably expressing human-derived GPR40; FLIPR for Examples 2, 6, 8, 10, 11, 13, Cell Lux for Examples 19-34
Counter-ions that a name gives are not always drawn.
MEASURE_NAME: activation at 1 µM (%)

Write down activation at 1 µM measured for item Cc1cc(OCCCS(C)(=O)=O)cc(CO)c1-c1cccc(COc2ccc3c(c2)OC[C@H]3CC(=O)O)c1
118

Entry CCS(=O)(=O)CCOc1cc(C)c(-c2cccc(COc3ccc4c(c3)OC[C@H]4CC(=O)O)c2)c(C)c1 needs its activation at 1 µM filled in; supply it.
120

Kindly indicate its recorded activation at 1 µM. Item: Cc1cc(OC2CCS(=O)(=O)CC2)cc(C)c1-c1cccc(COc2ccc3c(c2)OC[C@H]3CC(=O)O)c1
107

Provide measured activation at 1 µM value, entry: Cc1cc(OCCCS(C)(=O)=O)c(F)c(C)c1-c1cccc(COc2ccc3c(c2)OC[C@H]3CC(=O)O)c1
125

Fill in reported activation at 1 µM for this entry: Cc1cc(OCC2(O)CCS(=O)(=O)CC2)cc(C)c1-c1cccc(COc2ccc3c(c2)OC[C@H]3CC(=O)O)c1
102

Query activation at 1 µM for Cc1cc(OCCCS(C)(=O)=O)cc(C)c1-c1cc(COc2ccc3c(c2)OC[C@H]3CC(=O)O)ccc1COc1ccccc1
104

Give the measured activation at 1 µM for Cc1c(C)c(-c2cccc(COc3ccc4c(c3)OC[C@H]4CC(=O)O)c2)c(C)c(C)c1OCCCS(C)(=O)=O
112

Name the recorded activation at 1 µM of the item CCc1c(Cl)c(OCCCS(C)(=O)=O)c(Cl)c(CC)c1-c1cccc(COc2ccc3c(c2)OC[C@H]3CC(=O)O)c1 in your answer.
92

Assign activation at 1 µM to the following record: Cc1c(Cl)c(OCCCS(C)(=O)=O)c(Cl)c(C)c1-c1cccc(COc2ccc3c(c2)OC[C@H]3CC(=O)O)c1
96

Input Cc1cc(OCCCS(C)(=O)=O)cc(C)c1-c1cc(COc2ccc3c(c2)OC[C@H]3CC(=O)O)c(F)cc1OCc1ccccc1 , output reported activation at 1 µM.
119

Could you please provide reported activation at 1 µM for CCc1cc(OCCCS(C)(=O)=O)cc(CC)c1-c1cccc(COc2ccc3c(c2)OC[C@H]3CC(=O)O)c1 ? Thanks!
101

Identify measured activation at 1 µM corresponding to Cc1cc(OCCCS(C)(=O)=O)c(Cl)c(C)c1-c1cccc(COc2ccc3c(c2)OC[C@H]3CC(=O)O)c1
121

Read the entry Cc1cc(OCCCS(C)(=O)=O)cc(C)c1-c1cc(COc2ccc3c(c2)OC[C@H]3CC(=O)O)ccc1Oc1ccccc1 [Example 30, calcium salt] and write its reported activation at 1 µM.
108
